Cited source: patent US9440933B2

Test system: wheat
Experiment: Damage to wheat (growth inhibition) by seed treatment (pot test)
Details: 2 mg in DMSO applied to wheat seeds 1 g, 14 to 28 days after seeding, larger index = smaller damage
MEASURE NAME: Damage index Growth inhibition
Give bare numbers.

CNC(=O)[C@]1(C)CC[C@H](Cc2ccc(Cl)cc2)[C@@]1(O)Cn1cncn1 (racemic); 5
CC(C)OC(=O)[C@]1(C)CC[C@H](Cc2ccc(Cl)cc2)[C@@]1(O)Cn1cncn1 (racemic); 5

API: the following record is the query input.
Incoming: // returns reported Damage index Growth inhibition for input COC(=O)[C@]1(C)CC[C@H](Cc2ccc(Cl)cc2)[C@@]1(O)Cn1cncn1 (racemic)
Outgoing: 5
